Several publications report IC50 on Tyrosine-protein kinase ZAP-70 (Homo sapiens, UniProt P43403); those values are gathered here.

For orientation, consider the following solved cases.
Look up IC50 of "CN(C)c1ccc(-c2nccn3nc(Nc4ccc(N5CCOCC5)cc4)nc23)cn1" and report it.
3 to 50 µM

// Input: "CCCOc1ccc(-c2c[nH]c3ncccc23)cc1" . Output its IC50 only.
≤ 10 µM

Tell me measured IC50 for "O=C(NCc1ccccc1Cl)NCc1c[nH]c2ncccc12" please.
≤ 10 µM

Fill in reported IC50 for this entry: "FC(F)(F)c1ccc(-c2ccnc3[nH]ccc23)cc1"
≤ 10 µM

---
Name the recorded IC50 of the item "Cc1cc(C)cc(Nc2nccn3nc(Nc4cccc(C(F)(F)F)c4)nc23)c1" in your answer.
3 to 50 µM

Item "c1ccc(Cn2ncc3ccc(Nc4nccn5nc(Nc6ccccc6)nc45)cc32)cc1" : provide IC50
3 to 50 µM

Note down IC50 recorded for "O=C1CCCN1CCCNCc1c[nH]c2ncccc12"
≤ 10 µM

Specify reported IC50 for the compound shown: "COc1cc(-c2cc3nccc(-c4ccc5[nH]cnc5c4)c3o2)cc(OC)c1OC"
3 to 50 µM

Fill in IC50 for record "Cc1cc(C)cc(Nc2nc3c(NCCCN(C)C)nccn3n2)c1"
3 to 50 µM

Tell me its IC50 given "Clc1ccc(Nc2ccnc3[nH]ccc23)cc1Cl" as the entry.
≤ 10 µM

Give the value of IC50 reported for the following: "CN1CCN(c2ccc(Nc3nc4c(-c5ccc6c(cnn6C)c5)nccn4n3)cc2)CC1"
3 to 50 µM

###

This section presents IC50 values reported for UniProt P43403 in the literature.

Sample answers from the record:
Using UniProt P43403 as the test system, report measured IC50 of "FC(F)(F)c1cccc(Nc2nc3c(Nc4ccccc4)nccn3n2)c1" .
3 to 50 µM

Under UniProt P43403: report IC50 of "COc1cc(-c2cc3nccc(-c4cccc(C(=O)NCc5n[nH]c(=O)[nH]5)c4)c3o2)cc(OC)c1OC" .
3 to 50 µM

Answer with IC50 of "O=C(O)/C=C/c1cccc(-c2cnc3[nH]cc(C(=O)c4ccc5nsnc5c4)c3c2)c1" measured for UniProt P43403.
≤ 10 µM

Find IC50 for "CNc1cc(Nc2nccc(Nc3cccc(OC)c3S(N)(=O)=O)n2)ccc1C" on UniProt P43403 and write it down.
0.037 µM

Lab note: UniProt P43403 assay, enter IC50 for "CN1CCN(Cc2ccc(C(=O)Nc3ccc(Cc4c[nH]c5ncccc45)cc3)cc2)CC1" here
≤ 10 µM

Fill: IC50 (UniProt P43403) for this compound "Cc1cccc(Nc2nc3c(-c4cccnc4)nccn3n2)c1"
3 to 50 µM

---
Provide the reported IC50 (system: UniProt P43403) for "c1ccc(Cn2ncc3ccc(Nc4nc5c(-c6nccs6)nccn5n4)cc32)cc1"
3 to 50 µM

Check UniProt P43403 data and give IC50 for "COc1cccc(-c2ccc(S(=O)(=O)NCc3c[nH]c4ncccc34)s2)c1" .
≤ 10 µM

Output reported IC50 of the compound "O=C(Nc1n[nH]c2c1CCCn1cc(C(=O)NC3CCCC3)cc1-2)c1cccnc1" on UniProt P43403.
0.8 µM

Enter IC50 (test system UniProt P43403) for "Cc1cccc(Nc2nccn3nc(Nc4ccc5cnn(Cc6ccccc6)c5c4)nc23)c1"
3 to 50 µM

Provide measured IC50 on UniProt P43403 for "CN1CCN(CCOc2cccc(Nc3nccc(Nc4ccc5c(c4S(N)(=O)=O)OCCO5)n3)c2)CC1" please.
0.016 µM

Report value: IC50, system: UniProt P43403, compound: "Cc1cc(C)cc(Cc2c[nH]c3ncccc23)c1"
≤ 10 µM

// fetch IC50; item: "Cc1cc(C)cc(Nc2nc3c(NCCCN4CCN(C)CC4)nccn3n2)c1" ; system: UniProt P43403
3 to 50 µM
